The reported numbers originate from paper PMC5540273.

# Tested on: ACVRL1
# stated.conditions: concentration: 1 μM, replicates: in singlicate; n = 1;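 note: KINOMEscan kinase panel screen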
measurement.type: %Inh (%)

INSERT INTO measurements (molecule, system_tested, unit_label, reported_value) VALUES
  ('O=C(NCCCN1CCCC1=O)c1cnc(NCc2cc(Cl)ccc2Cl)nc1NC1CCNCC1', 'ACVRL1', '%', 0),
  ('Clc1cc(Nc2ncnc3cc[nH]c23)ccc1OCc1ccccn1', 'ACVRL1', '%', 5),
  ('O=C(Nc1ccccc1)Nc1ccc(Oc2ccc3nccn3n2)cc1', 'ACVRL1', '%', 0),
  ('Fc1ccc(-c2ncn(CCCNCc3ccccc3)c2-c2ccncc2)cc1', 'ACVRL1', '%', 17),
  ('CCCc1ccc(S(=O)(=O)NC2CCN(c3ccnc(Nc4ccc(OC)cc4)n3)C2)cc1 (stereo not drawn) [GSK1379737]', 'ACVRL1', '%', 0),
  ('CC(C)N1CCC(n2cnc(-c3ccc(F)cc3)c2-c2ccnc(N)n2)CC1 [SB-223132]', 'ACVRL1', '%', 0),
  ('CC(C)(C)c1ccc(-n2cnc3c(N)ncnc32)cc1 [SKF-97263]', 'ACVRL1', '%', 0),
  ('O=C(c1ccc(-c2cc(-c3c[nH]nc3-c3ccccn3)ccn2)cc1)N1CCCC1 [GW792479]', 'ACVRL1', '%', 0),
  ('Oc1ccc2ncnc(Nc3ccc(OCc4ccccc4)cc3)c2c1 [GI262866]', 'ACVRL1', '%', 0),
  ('Clc1ccc(-c2cc(-c3c[nH]nc3-c3ccccn3)ccn2)cc1 [GW681251]', 'ACVRL1', '%', 0),
  ('Nc1n[nH]c2nnc(-c3ccccc3)cc12 [SB-517389]', 'ACVRL1', '%', 0),
  ('Clc1cccc(-c2nc(Nc3ccncc3)c3ccccc3n2)c1 [GW873004]', 'ACVRL1', '%', 9),
  ('CCc1nc(-c2cccc(N(C)S(=O)(=O)c3ccccc3)c2)c(-c2ccnc(Nc3ccc(N4CCN(C(C)=O)CC4)nc3)n2)s1 [GSK1645895]', 'ACVRL1', '%', 0),
  ('FC(F)(F)c1ccc(-c2cc(-c3c[nH]nc3-c3ccccn3)ccn2)cc1 [GW599550]', 'ACVRL1', '%', 0),
  ('CS(=O)(=O)CCNCc1ccc(-c2ccc3ncnc(Nc4ccc(OCc5ccccc5)c(Cl)c4)c3c2)o1.Cl [GW574783]', 'ACVRL1', '%', 0),
  ('COc1ccc(-c2nc3n(c2-c2ccncc2)CCC3)cc1 [SKF-104493]', 'ACVRL1', '%', 0),
  ('CNc1nccc(-c2c(-c3ccc(F)cc3)ncn2CCCN2CCOCC2)n1 [SB-222516]', 'ACVRL1', '%', 15),
  ('CSc1ccc(NC2=C(c3ccccc3Cl)C(=O)NC2=O)cc1 [SB-342411]', 'ACVRL1', '%', 0),
  ('FC(F)(F)c1cc(Nc2nccc(-c3c(-c4ccc(Cl)cc4)nn4ncccc34)n2)ccc1Cl [GW829351]', 'ACVRL1', '%', 0),
  ('CCc1nc(-c2cccc(C)c2)c(-c2ccnc(NC(=O)c3ccccc3)c2)s1', 'ACVRL1', '%', 0),
  ('c1ccc(-c2ccc3c(-c4ccnc(Nc5ccc6c(c5)OCCO6)n4)cnn3n2)cc1 [GW818941]', 'ACVRL1', '%', 13),
  ('COc1ccc(Nc2nccc(N3CCC(NC(=O)Nc4ccc5c(c4)OCO5)C3)n2)cc1 (stereo not drawn) [GSK1379745]', 'ACVRL1', '%', 0),
  ('COc1ccc(Nc2nccc(N3CCC(NC(=O)c4cccc(NC(C)=O)c4)C3)n2)cc1 (stereo not drawn) [GSK1379732]', 'ACVRL1', '%', 2),
  ('NC(=O)c1sc(-n2cnc3ccccc32)cc1OCc1ccccc1F [GSK1024306]', 'ACVRL1', '%', 0),
  ('O=c1cc(N2CCOCC2)nc2n(Cc3cccc(Cl)c3)ccn12 [GSK2296823]', 'ACVRL1', '%', 0),
  ('COC(=O)c1cccc(NC(=O)NCCNc2ccnc(Nc3ccc(F)cc3)n2)c1 [GSK1379883]', 'ACVRL1', '%', 0),
  ('COc1ccc(NC(=O)c2ccc(-c3cc(-c4nnc(C)o4)ccc3C)cc2)cc1 [GW595885]', 'ACVRL1', '%', 0),
  ('CSc1nn2c(=O)cc(N3CCOCC3)nc2n1Cc1cccc(Cl)c1Cl [GSK2347225]', 'ACVRL1', '%', 0),
  ('COC(=O)c1c(-c2ccccc2)c2cc(Cl)ccc2c(=O)n1Cc1ccc(S(C)(=O)=O)cc1', 'ACVRL1', '%', 0),
  ('COc1cc2ncnc(Nc3ccc(OCc4ccccc4Br)c(Cl)c3)c2cc1OC.Cl [GI261590]', 'ACVRL1', '%', 0),
  ('Nc1nc(-c2ccccn2)c(-c2ccnc3ccccc23)s1 [GW548057]', 'ACVRL1', '%', 0),
  ('N#Cc1ccc(Oc2ccc(Nc3ncnc4cc[nH]c34)cc2Cl)cc1', 'ACVRL1', '%', 6),
  ('Cl.Fc1ccccc1COc1ccc(Nc2ncnc3ccc(-c4nnc(C(F)(F)F)o4)cc23)cc1Cl [GW424170]', 'ACVRL1', '%', 0),
  ('Cn1cc(-c2ccc3c(c2)CCN3C(=O)Cc2cccc(C(F)(F)F)c2)c2c(N)ncnc21 [GSK2606414]', 'ACVRL1', '%', 4),
  ('CCC(CC)(CC)n1cnc2c(N)ncnc21 [SKF-97620]', 'ACVRL1', '%', 0),
  ('C[C@H]1CC[C@@H](C(=O)Nc2ccccc2)CN1c1cc(-c2ccc3c(N)n[nH]c3c2)nc(N)n1 [GSK2283293]', 'ACVRL1', '%', 0);

====

# Test system: SLK
# stated.conditions: concentration: 1 μM, replicates: in singlicate; n = 1
measurement.type: %Inh (%)

INSERT INTO measurements (molecule, reported_value) VALUES
  ('CS(=O)(=O)CCNCc1ccc(-c2ccc3ncnc(Nc4ccc(OCc5ccccc5)c(Cl)c4)c3c2)o1.Cl', 25),
  ('Clc1cc(Nc2ncnc3cc[nH]c23)ccc1OCc1ccccn1', 21),
  ('O=C(NCCCN1CCCC1=O)c1cnc(NCc2cc(Cl)ccc2Cl)nc1NC1CCNCC1', 14),
  ('O=c1cc(N2CCOCC2)nc2n(Cc3cccc(Cl)c3)ccn12', 0),
  ('CCCc1ccc(S(=O)(=O)NC2CCN(c3ccnc(Nc4ccc(OC)cc4)n3)C2)cc1 (stereo not drawn)', 15),
  ('COC(=O)c1cccc(NC(=O)NCCNc2ccnc(Nc3ccc(F)cc3)n2)c1', 4),
  ('Nc1n[nH]c2nnc(-c3ccccc3)cc12', 0),
  ('Nc1nc(-c2cccnc2)c(-c2ccnc3ccccc23)s1', 18),
  ('C[C@@H]1CCN(C(=O)CO)C[C@@H]1N(C)c1ncnc2[nH]ccc12', 0),
  ('CS(=O)(=O)CCNCc1nc(-c2ccc3ncnc(Nc4ccc(OCc5cccc(F)c5)c(Cl)c4)c3c2)cs1.Cl', 20),
  ('O=C(Nc1ccccc1)Nc1ccc(Oc2ccc3nccn3n2)cc1', 20),
  ('COc1ccc(Nc2nccc(N3CCC(NC(=O)Nc4ccc5c(c4)OCO5)C3)n2)cc1 (stereo not drawn)', 27),
  ('Nc1nc(-c2ccc3c(N)n[nH]c3c2)cc(N2CCCCC2)n1', 5),
  ('C[C@H]1CC[C@@H](C(=O)Nc2ccccc2)CN1c1cc(-c2ccc3c(N)n[nH]c3c2)nc(N)n1', 0),
  ('O=C(CCO)NCCn1ccc2ncnc(Nc3ccc(Oc4cccc(C(F)(F)F)c4)c(Cl)c3)c21', 37),
  ('CC(=O)Nc1n[nH]c2ncc(-c3ccccc3)cc12', 20),
  ('COc1ccc(-c2oc3ncnc(N)c3c2-c2ccc(OC)cc2)cc1', 20),
  ('CSc1ccc(NC2=C(c3ccccc3Cl)C(=O)NC2=O)cc1', 98.7),
  ('COc1cc2ncnc(Nc3ccc(OCc4ccccc4Br)c(Cl)c3)c2cc1OC.Cl', 86),
  ('Cl.Cn1ccc(-c2cccc(Nc3ccnc4cc(-c5nccs5)ccc34)c2)n1', 42),
  ('CNc1nccc(-c2c(-c3ccc(F)cc3)ncn2CCCN2CCOCC2)n1', 5),
  ('CCC(CC)(CC)n1cnc2c(N)ncnc21', 24),
  ('CNc1nccc(-c2c(-c3ccc(F)cc3)ncn2C2CCN(C)CC2)n1', 0),
  ('COc1ccc(NC(=O)Nc2ccc(C)c(-c3ccc(C(=O)Nc4ccncc4)cc3)c2)cc1', 0),
  ('CSc1nn2c(=O)cc(N3CCOCC3)nc2n1Cc1cccc(Cl)c1Cl', 18),
  ('CCc1nc(-c2cccc(C)c2)c(-c2ccnc(NC(=O)c3ccccc3)c2)s1', 0),
  ('Fc1cccc(COc2ccc(Nc3ncnc4cc[nH]c34)cc2Cl)c1', 34),
  ('c1ccc(-c2ccc3c(-c4ccnc(Nc5ccc6c(c5)OCCO6)n4)cnn3n2)cc1', 20),
  ('Clc1cccc(-c2nc(Nc3ccncc3)c3ccccc3n2)c1', 43),
  ('CCc1nc(-c2cccc(N(C)S(=O)(=O)c3ccccc3)c2)c(-c2ccnc(Nc3ccc(N4CCN(C(C)=O)CC4)nc3)n2)s1', 3),
  ('COc1cc2c(Nc3cccc(NC(=O)c4ccccc4)c3)ncnc2cc1OCCCN1CCOCC1', 0),
  ('Cc1cc(N2CCC(NS(=O)(=O)c3ccc(F)cc3)CC2)nc(Nc2cccc(C#N)c2)n1.O=C(O)C(F)(F)F', 13),
  ('Clc1ccc(-c2cc(-c3c[nH]nc3-c3ccccn3)ccn2)cc1', 10),
  ('FC(F)(F)c1cc(Nc2nccc(-c3c(-c4ccc(Cl)cc4)nn4ncccc34)n2)ccc1Cl', 0),
  ('CC(C)(C)c1ccc(-n2cnc3c(N)ncnc32)cc1', 13),
  ('Fc1cccc(COc2ccc(Nc3ncnc4nn5ccccc5c34)cc2Cl)c1', 2);
